Source: patent US12077503B2

Test system: wheat (Triticum aestivum)
Assay Summary: Test A postemergence
Type: in vivo
Condition Info: Triticum aestivum, post-emergence, 240 h, 125 g ai/ha, Postemergence, visual rating about 10 d after treatment; read-out: Wheat plant response rating (0 to 100 scale)
Experimental Readout: plant injury at 125 g/ha (%)
# value in %; strip the unit string

A selection of reference data follows.
molecule="CN1C[C@H](c2ccc3c(c2)CCO3)[C@@H](C(=O)Nc2cccc(F)c2F)C1=O [Compound 1324]" measured_target="wheat (Triticum aestivum)" recorded_measurement=30
molecule="CN1C[C@H](c2cccc(C(F)(F)F)c2)[C@@H](C(=O)Nc2ccccc2-n2cncn2)C1=O [Compound 1289]" measured_target="wheat (Triticum aestivum)" recorded_measurement=0
molecule="O=C(Nc1ccccc1F)[C@H]1C(=O)N(CC(F)F)C[C@@H]1c1cccc(C(F)(F)F)c1 [Compound 1295]" measured_target="wheat (Triticum aestivum)" recorded_measurement=0
molecule="CN1C[C@H](c2cccc(C#N)c2)[C@@H](C(=O)Nc2ccc(F)c(F)c2F)C1=O [Compound 1287]" measured_target="wheat (Triticum aestivum)" recorded_measurement=0
molecule="Cc1c(F)ccc([C@H]2CNC(=O)[C@@H]2C(=O)Nc2ccccc2F)c1F [Compound 1326]" measured_target="wheat (Triticum aestivum)" recorded_measurement=0
molecule="CN1C[C@H](c2ccc(C(F)(F)F)cc2)[C@@H](C(=O)Nc2ccccc2-n2cncn2)C1=O [Compound 1288]" measured_target="wheat (Triticum aestivum)" recorded_measurement=0
molecule="CN1C[C@H](c2cc(Cl)cc(Cl)c2)[C@@H](C(=O)Nc2ccccc2F)C1=O [Compound 1269]" measured_target="wheat (Triticum aestivum)" recorded_measurement=60
molecule="COc1cc([C@H]2CN(C)C(=O)[C@@H]2C(=O)Nc2cccc(F)c2C)ccc1F [Compound 1300]" measured_target="wheat (Triticum aestivum)" recorded_measurement=0
molecule="CN1C[C@H](c2ccc(C(F)(F)F)cc2)[C@@H](C(=O)Nc2ccc(F)nc2F)C1=O [Compound 1347]" measured_target="wheat (Triticum aestivum)" recorded_measurement=30
molecule="Cc1nc([C@H]2CN(C)C(=O)[C@@H]2C(=O)Nc2cccc(F)c2F)cs1 [Compound 1281]" measured_target="wheat (Triticum aestivum)" recorded_measurement=0

Now let's try a different one.
Form: molecule = Cc1cccc([C@H]2CN(C)C(=O)[C@@H]2C(=O)Nc2ccc(F)nc2F)c1 [Compound 1349] ; plant injury at 125 g/ha = 0

###

Entries and their plant injury at 250 g/ha values follow.
System: corn (Zea mays)
Assay Summary: Test G Pre-Emergence Protocol
Type: in vivo
Condition Info: Zea mays, pre-emergence, 312 h, 250 g ai/ha, evaluated after 13 days, read-out: Corn damage rating (100=total damage to plant; 0=no damage to plant)
# value in %; strip the unit string

compound="Cc1ccc(NC(=O)[C@@H]2C(=O)N(C)C[C@H]2c2ccc(C(F)(F)F)cc2)nn1 (racemic)" recorded_measurement=0

Form: compound = Cc1nc(NC(=O)[C@@H]2C(=O)N(C)C[C@H]2c2ccc(C(F)(F)F)cc2)ccc1Cl (racemic) ; plant injury at 250 g/ha = 10

Form: compound = Cc1nc(Cl)ccc1NC(=O)[C@H]1C(=O)N(C)C[C@@H]1c1ccc(C(F)(F)F)cc1 (racemic) ; plant injury at 250 g/ha = 0

Form: compound = CN1C[C@H](c2cccc(C(F)F)c2)[C@@H](C(=O)Nc2cccc(F)c2F)C1=O (racemic) ; plant injury at 250 g/ha = 80

Form: compound = CN1C[C@H](c2cccc(C(F)(F)F)c2)[C@@H](C(=O)Nc2cccnc2F)C1=O (racemic) ; plant injury at 250 g/ha = 90

Form: compound = CCOc1cc([C@@H]2CN(C)C(=O)[C@H]2C(=O)Nc2cccc(F)c2C)ccc1F (racemic) ; plant injury at 250 g/ha = 60

Form: compound = Cc1c(NC(=O)[C@@H]2C(=O)N(C)C[C@H]2c2ccc(C(F)(F)F)cc2)ccnc1Cl (racemic) ; plant injury at 250 g/ha = 0

Form: compound = CN1C[C@@H](c2ccc(C(F)(F)F)cc2)[C@H](C(=O)Nc2cccc(F)c2C(F)(F)F)C1=O (racemic) ; plant injury at 250 g/ha = 40

Form: compound = CN1C[C@H](c2ccc(C(F)(F)F)cc2)[C@@H](C(=O)Nc2cnccc2[N+](=O)[O-])C1=O (racemic) ; plant injury at 250 g/ha = 0

Form: compound = CC(C)OC(=O)c1cc([C@H]2CN(C)C(=O)[C@@H]2C(=O)Nc2ccccc2F)ccc1F (racemic) ; plant injury at 250 g/ha = 0

###

System: barnyardgrass (Echinochloa crus-galli)
Assay Summary: Test G Pre-Emergence Protocol
Type: in vivo
Condition Info: Echinochloa crus-galli, pre-emergence, 312 h, 62.5 g ai/ha, evaluated after 13 days, 100=total damage to plant, 0=no damage to plant, read-out: plant damage rating, Barnyardgrass
Threshold rule: pest or weed control at 62.5 g/ha greater than or equal to 60% is true (1); below that, false (0).

# bool: pest or weed control at 62.5 g/ha of Cc1cc(Cl)ncc1NC(=O)[C@@H]1C(=O)N(C)C[C@H]1c1ccc(C(F)(F)F)cc1 (racemic) >= 60%
false (0)

###

Tested on: Kochia (Kochia scoparia)
Assay Summary: Test A preemergence
Format: in vivo
Condition Info: Bassia scoparia, pre-emergence, 240 h, Preemergence, 125 g ai/ha; 0 to 100 scale (0 no effect, 100 complete control); read-out: Plant response rating, Kochia
Experimental Readout: pest or weed control at 125 g/ha (%)
# value in %; strip the unit string

A selection of reference data follows.
compound=O=C1NC[C@H](c2ccc(OC(F)F)cc2)[C@H]1C(=O)Nc1ccc(F)cc1F recorded_measurement=80
compound=CN1C[C@H](c2ccc(C(F)(F)F)nc2)[C@@H](C(=O)Nc2cccc(F)c2F)C1=O recorded_measurement=90
compound="O=C1NC[C@H](c2cc(C(F)(F)F)ccn2)[C@H]1C(=O)Nc1cccc(F)c1F (racemic)" recorded_measurement=0

Form: compound = CN1C[C@H](c2ccc(C(F)F)cc2)[C@@H](C(=O)Nc2cccc(F)c2F)C1=O ; pest or weed control at 125 g/ha = 90

###

Entries and their pest or weed control at 500 g/ha values follow.
System: pigweed (Amaranthus retroflexus)
Assay Summary: Test A postemergence
Format: in vivo
Condition Info: Amaranthus retroflexus, post-emergence, 240 h, 500 g ai/ha, postemergence; 0 to 100 scale, 0 is no effect, 100 is complete control; read-out: Pigweed plant response rating
# value in %; strip the unit string

A selection of reference data follows.
compound="O=C1NC[C@H](c2nccs2)[C@H]1C(=O)Nc1ccccc1F [Compound 1181]" experimental_readout="pest or weed control at 500 g/ha" recorded_measurement=0
compound="CCc1cc([C@H]2CNC(=O)[C@@H]2C(=O)Nc2cccc(F)c2F)cs1 [Compound 1155]" experimental_readout="pest or weed control at 500 g/ha" recorded_measurement=0

Form: compound = O=C1NC[C@H](c2csc(C(F)F)c2)[C@H]1C(=O)Nc1ccccc1F [Compound 1118] ; pest or weed control at 500 g/ha = 20

Form: compound = C/C=C/N1C[C@@H](c2cccc(C(F)(F)F)c2)[C@H](C(=O)Nc2ccccc2F)C1=O (racemic) [Compound 1094] ; pest or weed control at 500 g/ha = 20

Form: compound = Cc1ccc([C@H]2CNC(=O)[C@]2(Br)C(=O)Nc2cccc(F)c2F)cc1F (racemic) [Compound 1073] ; pest or weed control at 500 g/ha = 20

Form: compound = CN1C[C@H](c2ccc(C(F)(F)F)cc2)[C@@](F)(C(=O)Nc2cccc(F)c2F)C1=O (racemic) [Compound 1151] ; pest or weed control at 500 g/ha = 80

Form: compound = CCc1cc(CC)cc([C@H]2CNC(=O)[C@@H]2C(=O)Nc2cccc(F)c2F)c1 [Compound 1139] ; pest or weed control at 500 g/ha = 0

Form: compound = Cc1cc([C@H]2CN(C)C(=O)[C@@H]2C(=O)Nc2ccccc2F)on1 [Compound 1195] ; pest or weed control at 500 g/ha = 0

###

Entries and their Pigweed plant response rating values follow.
System: pigweed (Amaranthus retroflexus)
Assay Summary: Test A postemergence
Type: in vivo
Condition Info: 125 g ai/ha, postemergence; visual injury rating on 0 to 100 scale (0 no effect, 100 complete control), approx. 10 d
Give the value as a plain number.

A selection of reference data follows.
molecule="Cc1cc(NC(=O)C2C(=O)NCC2c2ccc(F)c(F)c2)ccc1C(F)(F)F (stereo not drawn)" experimental_readout="Pigweed plant response rating" recorded_measurement=0
molecule="O=C1NCC(c2c(F)cccc2F)C1C(=O)Nc1cccc(F)c1F (racemic)" experimental_readout="Pigweed plant response rating" recorded_measurement=0

Form: molecule = Cc1cc(C2CNC(=O)C2C(=O)Nc2cccc(F)c2F)ccc1F (stereo not drawn) ; Pigweed plant response rating = 30

Form: molecule = COc1cccc(NC(=O)C2C(=O)NCC2c2ccc(F)c(F)c2)c1F (stereo not drawn) ; Pigweed plant response rating = 0

Form: molecule = C=C(C)CN1CC(c2cccc(C(F)(F)F)c2)C(C(=O)Nc2ccccc2F)C1=O (stereo not drawn) ; Pigweed plant response rating = 0

Form: molecule = CN1CC(c2ccc(C(F)(F)F)cc2F)C(C(=O)Nc2cccc(F)c2F)C1=O (stereo not drawn) ; Pigweed plant response rating = 60
